# Rel EC50 per entry
Target: T1, Recombinant DR3-Fc (R&D Systems, cat. #943-D3) (UniProt Q93038 25-199, limits assumed)
T1 construct: dimeric MW~92 kDa; also called DR3 receptor; Fc-DR3; not shown: Fc part of the bought fusion
T1 sequence (looked up): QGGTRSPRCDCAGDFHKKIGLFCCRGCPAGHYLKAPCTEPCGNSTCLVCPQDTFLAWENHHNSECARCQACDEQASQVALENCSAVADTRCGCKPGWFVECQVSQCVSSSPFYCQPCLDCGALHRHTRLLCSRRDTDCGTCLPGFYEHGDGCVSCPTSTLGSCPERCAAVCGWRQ
Test: ELISA, DR3-Fc immobilized
Endpoint Label: Rel EC50

{"Binder": "TL1W123 (His-TEV-TL1A N207S) (ligand, also called TL1W123 (N207S)) HHHHHHENLYFQGLKGQEFAPSHQQVYAPLRADGDKPRAHLTVVRQTPTQHFKNQFPALHWEHELGLAFTKNRMNYTNKFLLIPESGDYFIYSQVTFRGMTSECSEIRQAGRPNKPDSITVVITKVTDSYPEPTQLLMGTKSVCEVGSSWFQPIYLGAMFSLQEGDKLMVNVSDISLVDYTKEDKTFFGAFLL", "Test Result": "1 ratio (head: nM)"}
{"Binder": "TL1W107 (His-TEV-TL1A D186Y) (ligand, also called TL1W107 (D186Y)) HHHHHHENLYFQGLKGQEFAPSHQQVYAPLRADGDKPRAHLTVVRQTPTQHFKNQFPALHWEHELGLAFTKNRMNYTNKFLLIPESGDYFIYSQVTFRGMTSECSEIRQAGRPNKPDSITVVITKVTYSYPEPTQLLMGTKSVCEVGSNWFQPIYLGAMFSLQEGDKLMVNVSDISLVDYTKEDKTFFGAFLL", "Test Result": "2.4 ratio (head: nM)"}
{"Binder": "TL1W109 (His-TEV-TL1A S187L) (ligand, also called TL1W109 (S187L)) HHHHHHENLYFQGLKGQEFAPSHQQVYAPLRADGDKPRAHLTVVRQTPTQHFKNQFPALHWEHELGLAFTKNRMNYTNKFLLIPESGDYFIYSQVTFRGMTSECSEIRQAGRPNKPDSITVVITKVTDLYPEPTQLLMGTKSVCEVGSNWFQPIYLGAMFSLQEGDKLMVNVSDISLVDYTKEDKTFFGAFLL", "Test Result": "0.7 ratio (head: nM)"}
{"Binder": "TL1W104 (His-TEV-TL1A T185L) (ligand, also called TL1W104 (T185L)) HHHHHHENLYFQGLKGQEFAPSHQQVYAPLRADGDKPRAHLTVVRQTPTQHFKNQFPALHWEHELGLAFTKNRMNYTNKFLLIPESGDYFIYSQVTFRGMTSECSEIRQAGRPNKPDSITVVITKVLDSYPEPTQLLMGTKSVCEVGSNWFQPIYLGAMFSLQEGDKLMVNVSDISLVDYTKEDKTFFGAFLL", "Test Result": "1.9 ratio (head: nM)"}
{"Binder": "TL1W2 (His-TEV-hTL1A 72-251) (ligand, Non-covalent trimer; entry holds the His-TEV tag; also called His-TL1A; His-TL1A (TL1W2)) HHHHHHENLYFQGLKGQEFAPSHQQVYAPLRADGDKPRAHLTVVRQTPTQHFKNQFPALHWEHELGLAFTKNRMNYTNKFLLIPESGDYFIYSQVTFRGMTSECSEIRQAGRPNKPDSITVVITKVTDSYPEPTQLLMGTKSVCEVGSNWFQPIYLGAMFSLQEGDKLMVNVSDISLVDYTKEDKTFFGAFLL", "Test Result": "1 ratio (head: nM)"}
{"Binder": "TL1W129 (His-TEV-TL1A Y238K) (ligand, also called TL1W129 (Y238K)) HHHHHHENLYFQGLKGQEFAPSHQQVYAPLRADGDKPRAHLTVVRQTPTQHFKNQFPALHWEHELGLAFTKNRMNYTNKFLLIPESGDYFIYSQVTFRGMTSECSEIRQAGRPNKPDSITVVITKVTDSYPEPTQLLMGTKSVCEVGSNWFQPIYLGAMFSLQEGDKLMVNVSDISLVDKTKEDKTFFGAFLL", "Test Result": "17 ratio (head: nM)"}

Each recorded value in this set is attributed to patent US20220056104A1.
